tested on: IGROV1 ovarian; test: NCI-60 one-dose screen, 48 h; details: 10 µM unless noted
This is part of a sample that, as a whole, favours compounds with a hit. Of some 83,000 tested, about 20% had one in any assay. The source made the active and inactive calls. How the source made its calls: active means growth percent below 10; inactive means the rest.
Possible outcomes: active, inactive

* COc1cc(-c2cc3cc(O)ccc3oc2=O)cc(OC)c1OC | inactive
* C[C@@H](C(=O)O)c1ccc2c3cc(Cl)ccc3n(Cc3cc(=O)oc4ccc(Cl)cc34)c2c1 | inactive
* O=P(O)(c1ccccc1)c1ccccc1I | inactive
* N#CC1=C(N)Oc2c(c(N)nn2-c2ccccc2)C1c1ccc(Cl)cc1Cl (stereo not given) | inactive
* C=C(C)[C@@H]1CC[C@]2(C(=O)O)CC[C@]3(C)[C@H](CC[C@@H]4[C@@]5(C)C/C(=C/c6ccc(OC)cc6)C(=O)C(C)(C)[C@@H]5CC[C@]43C)[C@@H]12 | inactive
* O=C1/C(=C\c2ccco2)SC(=S)N1CCc1ccc(O)cc1 | inactive
* OCC12CCCC(CO)(COC1)C2O (stereo not given) | inactive
* Cn1c(=O)c2c(nc(N3CCCC3)n2C)n(C)c1=O | inactive
* N#C/C(=C\c1ccc(-c2ccc(Cl)cc2)o1)c1nc(-c2ccco2)cs1 | inactive
* COc1cc(-c2cc3ncccc3c3nc(OCCN(C)C)c4cccnc4c23)cc(OC)c1OC | active

----------
This section presents compounds with their documented growth values.
test system: HOP-92 NSCLC; experiment: NCI-60 one-dose screen, 48 h (100 = growth as untreated, 0 = no growth, -100 = all killed); settings: 10 µM unless noted
The panel holds about 83,000 compounds, 20% with a hit somewhere; the sample as a whole holds those more often.
property_label: growth (%)

- COc1cccc(-c2nn(-c3ccccc3)cc2-c2ccnc(NCCNS(=O)(=O)c3cccc(F)c3)c2)c1: 22.3
- C/C(=N\NC(=O)C(C)SC(C)C(=O)N/N=C(\C)c1cccnc1)c1cccnc1 (stereo not given): 114
- Nc1c(C(=O)Nc2cccc(Br)c2)sc2nc3c(cc12)C(=O)CCC3: 79.3
- N#Cc1cnc2cc(OC[C@@H](O)CO)c(NC(=O)C3CCCC3)cc2c1Nc1ccc(OCc2cccc(F)c2)c(Cl)c1: -37.2
- CN1CCN(CCOc2ccc(-c3cnc4c(-c5ccccc5F)cnn4c3)cc2)CC1: 2.22

----------
tested on: K-562 leukemia; test: NCI-60 one-dose screen, 48 h; details: 10 µM unless noted
The panel holds about 83,000 compounds, 20% with a hit somewhere; the sample as a whole holds those more often. Activity calls are given as the source filed them. How the source made its calls: active means growth percent below 10; inactive means the rest.
Possible outcomes: active, inactive

- O=C(NO)c1ccc(Cn2c(=O)n(-c3ccccc3)c(=O)c3ccccc32)cc1: active
- Cn1cccc1/C=C1/SC(=S)N(CCc2ccc(O)cc2)C1=O: inactive
- Fc1ccc(Nc2nc(Nc3ccc(-c4nc5ccccc5[nH]4)cc3)nc(N3CCCC3)n2)cc1: active
- CC(CNc1nc(Nc2ccc(Cl)c(Cl)c2)nc(C(Cl)(Cl)Cl)n1)N(C)C (stereo not given): active
- CCc1cccc(CC)c1NC(=O)c1sc2nc3c(cc2c1N)CCCC3: inactive
- CCCCCCCC(=O)SCC/C=C/[C@@H]1CC(=O)NCc2cccc(n2)CN(Cc2ccc(Cl)cc2)CC(=O)N[C@@H](C(C)C)C(=O)O1: active
- COc1ccc(/C=C/C(=O)c2ccc([N+](=O)[O-])cc2)cc1: inactive
- Cn1cc(-c2csc(-c3cn(CCNC(=O)OC(C)(C)C)c4ccccc34)n2)c2cccnc21: inactive
- Brc1ccc(Cn2nnnc2-c2ccn(-c3ccccc3)n2)cc1: inactive
- c1cnc2[nH]cc(-c3csc(-c4cn(CCCN5CCCCC5)c5ccccc45)n3)c2c1: active
